// reported viability for each item listed
- test.name: HUVEC growth inhibition – cell-based, human, primary screen (AID 575);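 further: 100% = median of untreated cell wells with 0.1% DMSO on each plate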
- stated.conditions: HUVEC proliferation, CellTiter-Glo luminescence, 72 h; at 10 µM; active compounds read low
Activity calls are given as the source filed them.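 How the source made its calls: active means viability at or below 30% in both replicate assays; inconclusive means viability at or below 30% in just one of the two assays; inactive means the rest.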
endpoint: viability

>>> observed("CC(=O)c1c(C)oc2ccc(NS(=O)(=O)c3ccc(O)c(C(=O)O)c3)cc12")
"105% (inactive)"
>>> observed("COC(=O)c1ccccc1S(=O)(=O)N(CCCN1CCOCC1)Cc1cccs1")
"91.8% (inactive)"
>>> observed("CN(C)CCCN1C(=O)C(=O)/C(=C(/O)c2ccncc2)C1c1cccc(Br)c1 (configuration not stated)")
"118% (inactive)"
>>> observed("CCN(CC)CCCN(Cc1cc2cc(OC)ccc2[nH]c1=O)C(=O)Nc1ccccc1")
"65.8% (inactive)"
>>> observed("CC1(C)CC(=O)C(C=Nc2ccc3c(c2)OCO3)=C(O)C1")
"79.2% (inactive)"
>>> observed("c1ccc2c(c1)[nH]c1c(N3CCC4(CC3)OCCO4)ncnc12")
"65.2% (inactive)"
>>> observed("CCOC(=O)c1ccccc1NC(=O)c1ccc(NS(C)(=O)=O)cc1")
"97% (inactive)"
>>> observed("CCn1c(=O)c(C(=O)NCc2ccc(OC)cc2)c(O)c2ccccc21")
"46.7% (inactive)"
>>> observed("O=S(=O)(NCCc1csc(-c2ccccc2)n1)c1ccc2c(c1)OCCO2")
"101% (inactive)"
>>> observed("Cc1c(C(=O)OC(C)C)[nH]c2c1C(=O)CCC2")
"102% (inactive)"
>>> observed("CCOC(=O)CSc1nc2cc(C(=O)NCc3ccco3)ccc2c(=O)n1-c1ccc(F)cc1")
"71.4% (inactive)"
>>> observed("CC1CCN(S(=O)(=O)c2cn(CC(=O)N3CCN(C)CC3)c(=O)c3ccccc23)CC1")
"104% (inactive)"
>>> observed("Cc1cc(C)n2nc3nc(N4CCCCC4)nc(-c4ccco4)c3c2n1")
"79.5% (inactive)"
>>> observed("CCOc1cc(C)c(Cl)cc1S(=O)(=O)N(C)C")
"103% (inactive)"
>>> observed("CN1C2C=C3C(C#N)=C(N)C(C#N)(C#N)[C@@H](c4ccc(Cl)cc4)[C@@H]3C1CC2 (some centres not stated)")
"91.3% (inactive)"
>>> observed("CCCS(=O)(=O)N1CCN(Cc2ccc(OCc3ccccc3)c(OC)c2)CC1")
"105% (inactive)"
>>> observed("COCCn1c(=O)[nH]c2cc(C(=O)NCc3cccnc3)ccc2c1=O")
"107% (inactive)"
>>> observed("O=C(Nc1cccc(C(F)(F)F)c1)c1ccco1")
"95.9% (inactive)"
>>> observed("CCOC(=O)c1ccc(NS(=O)(=O)c2cccc3nsnc23)cc1")
"113% (inactive)"
>>> observed("CCN(C(=O)c1cc(Cl)ccc1OC)C1CCCCC1")
"101% (inactive)"
>>> observed("CC(C)[C@H](NC(=O)NC1CCCC1)C(=O)O")
"87.9% (inactive)"
>>> observed("Cn1c(COc2ccc(Cl)cc2)nnc1SCC(=O)NC1CCCCC1")
"89.5% (inactive)"
